target: T1, KDR-alkaline phosphatase (AP) soluble fusion protein (human, UniProt P35968 20-764); experiment: BIAcore SPR, KDR immobilized
T1 construct: Expressed in NIH 3T3 cells as in Lu et al. 2000; also called KDR-AP; full length KDR-AP; not shown: alkaline phosphatase (AP) fusion partner
T1 sequence (P35968 20-764): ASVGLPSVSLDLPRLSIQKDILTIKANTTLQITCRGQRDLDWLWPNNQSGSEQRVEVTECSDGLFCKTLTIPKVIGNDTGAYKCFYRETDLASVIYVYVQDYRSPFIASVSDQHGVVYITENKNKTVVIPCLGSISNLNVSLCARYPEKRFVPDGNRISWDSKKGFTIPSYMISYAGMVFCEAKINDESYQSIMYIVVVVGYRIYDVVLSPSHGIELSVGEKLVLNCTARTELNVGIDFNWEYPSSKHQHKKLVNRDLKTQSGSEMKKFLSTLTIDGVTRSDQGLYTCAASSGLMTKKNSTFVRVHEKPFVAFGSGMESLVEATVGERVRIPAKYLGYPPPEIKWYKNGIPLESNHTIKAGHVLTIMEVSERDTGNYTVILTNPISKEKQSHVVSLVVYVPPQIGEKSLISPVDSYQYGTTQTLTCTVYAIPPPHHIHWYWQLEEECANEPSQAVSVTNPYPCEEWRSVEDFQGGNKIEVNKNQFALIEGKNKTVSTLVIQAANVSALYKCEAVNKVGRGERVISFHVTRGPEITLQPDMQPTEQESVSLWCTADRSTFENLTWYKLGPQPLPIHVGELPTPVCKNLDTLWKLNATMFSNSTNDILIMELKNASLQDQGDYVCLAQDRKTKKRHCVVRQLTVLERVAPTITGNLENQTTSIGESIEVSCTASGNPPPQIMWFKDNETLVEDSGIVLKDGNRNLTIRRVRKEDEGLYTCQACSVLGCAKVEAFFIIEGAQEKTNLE
reported_metric: Kd (nM)
Give bare numbers, in nM.

Data request: I have this binder here, IMC-1121 IgG (antibody, V domains shown) VH: EVQLVQSGGGLVKPGGSLRLSCAASGFTFSSYSMNWVRQAPGKGLEWVSSISSSSSYIYYADSVKGRFTISRDNAKNSLYLQMNSLRAEDTAVYYCARVTDAFDIWGQGTMVTVSS VL: DIQMTQSPSSVSASIGDRVTITCRASQGIDNWLGWYQQKPGKAPKLLIYDASNLDTGVPSRFSGSGSGTYFTLTISSLQAEDFAVYFCQQAKAFPPTFGGGTKVDIK , and I need its recorded Kd.
Data returned: 0.05

Cited source: patent US20050234225A1
